Every entry's value here was drawn from patent US20180148504A1.

target.desc: T1, human folate receptor gamma (FRγ), recombinant, C-terminal 6xHis (human, UniProt P41439 23-245, limits assumed)
T1 construct: Transiently expressed in 293F cells and purified; coated on ELISA plates
assay.method.text: direct ELISA, plates coated with 1 µg/mL FR isoform, dilution series of culture supernatant
reported.property: binding result

INSERT INTO measurements (binder, measured_value) VALUES
  ('Monoclonal antibody 6A2.G7 (antibody, mouse IgG1, V domains shown, Murine IgG1 kappa from hybridoma; also called ATCC PTA-123093) VH: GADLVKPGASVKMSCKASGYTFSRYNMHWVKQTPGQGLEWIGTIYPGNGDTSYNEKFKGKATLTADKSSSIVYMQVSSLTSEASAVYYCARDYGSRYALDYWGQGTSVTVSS VL: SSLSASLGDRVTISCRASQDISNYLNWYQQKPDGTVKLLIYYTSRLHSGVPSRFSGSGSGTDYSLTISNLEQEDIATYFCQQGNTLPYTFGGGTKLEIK', 'no binding'),
  ('Monoclonal antibody 1C6.E12.G8 (antibody, mouse IgG1, V domains shown, Murine IgG1 kappa from hybridoma; also called ATCC PTA-123091) VH: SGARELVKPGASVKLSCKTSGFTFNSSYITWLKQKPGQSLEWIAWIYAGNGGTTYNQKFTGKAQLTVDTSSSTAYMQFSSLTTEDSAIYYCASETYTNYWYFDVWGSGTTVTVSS VL: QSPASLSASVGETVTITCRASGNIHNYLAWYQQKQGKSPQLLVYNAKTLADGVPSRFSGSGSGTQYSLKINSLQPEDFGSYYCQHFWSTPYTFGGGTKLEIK', 'no binding'),
  ('Monoclonal antibody 1A8.G11.E7 (antibody, mouse IgG1, V domains shown, Murine IgG1 kappa from hybridoma; also called ATCC PTA-123100) VH: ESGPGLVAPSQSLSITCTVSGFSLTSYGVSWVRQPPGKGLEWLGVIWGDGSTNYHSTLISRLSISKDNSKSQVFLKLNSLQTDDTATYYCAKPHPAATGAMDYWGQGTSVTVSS VL: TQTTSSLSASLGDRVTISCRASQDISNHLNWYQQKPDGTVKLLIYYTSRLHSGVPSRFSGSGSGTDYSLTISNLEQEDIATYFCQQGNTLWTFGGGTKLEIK', 'no binding');
